Sourced from PubChem BioAssay AID504481

Measured fold change by item
test system: YCR005C; assay: GFP reporter expression in transducer deletion yeast, mechanism study for yeast TOR pathway modulator project, S. cerevisiae, transducer mutant strains, GFP-tagged proteins (AID 504481);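 note: 1 = DMSO wells as ratio of mean channel GFP fluorescence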; conditions: S. cerevisiae transducer mutants, GFP-fusion expression, flow cytometry, 3 h
Lab note: record just the number, no unit beside it.

Sample records with fold change:
CCCCC(=O)NNC(=S)NC(=O)c1ccc(C)cc1; 1.02
CC1=NN(c2ccccc2)C(=O)C1C(c1ccccc1[N+](=O)[O-])C(C#N)C#N (stereo not drawn); 1

Read the next record carefully.
Inquiry: Recorded fold change for Clc1ccc(N=c2ssnc2Cl)cc1 with YCR005C, please?
Reply text: 0.981
